Target: full-length HAQ STING (Homo sapiens (Human), UniProt Q86WV6, G230A/H232R/R293Q/R71H)
Sequence (Q86WV6 other isoform, or with tags, fused parts or gaps, stated change not applied): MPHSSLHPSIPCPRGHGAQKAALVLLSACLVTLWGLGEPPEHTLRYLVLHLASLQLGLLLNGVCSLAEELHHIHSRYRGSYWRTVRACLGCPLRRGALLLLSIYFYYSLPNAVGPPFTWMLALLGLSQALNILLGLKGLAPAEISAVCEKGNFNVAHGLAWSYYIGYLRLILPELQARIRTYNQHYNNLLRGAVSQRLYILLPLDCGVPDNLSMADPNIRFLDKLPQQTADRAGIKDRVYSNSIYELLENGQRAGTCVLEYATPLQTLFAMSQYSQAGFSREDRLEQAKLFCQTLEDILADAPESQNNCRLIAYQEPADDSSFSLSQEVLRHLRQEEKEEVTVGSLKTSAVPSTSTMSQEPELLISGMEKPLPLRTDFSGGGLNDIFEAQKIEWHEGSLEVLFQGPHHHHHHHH
Test: 3H-cGAMP filtration binding assay (HAQ STING)
Details: competition with tritiated cGAMP, HAQ STING membrane
Grouping key: EC50. Bins: band 1 (below 7 µM), band 2 (7 µM to below 10 µM), band 3 (10 µM or more)

Past entries and their recorded results:
[
  {
    "Compound": "CCc1cc2sc(C(=O)C[C@H](C)C(=O)O)cc2cc1OC",
    "Class Label": "band 1"
  },
  {
    "Compound": "COc1cc2sc(C(=O)CCC(=O)O)cc2cc1Cl",
    "Class Label": "band 2"
  },
  {
    "Compound": "COc1cc2cc(C(=O)CC(C(=O)O)C(C)C)sc2cc1OC (stereo not shown)",
    "Class Label": "band 2"
  },
  {
    "Compound": "COc1cc2sc(C(=O)C[C@H](C)C(=O)O)cc2c(F)c1OC",
    "Class Label": "band 1"
  }
]

input: State the band of COc1cc2cc(C(=O)C[C@H](C)C(=O)O)sc2cc1Br
output: band 1

input: State the band of COc1cc2cc(C(=O)C[C@H](C)C(=O)O)sc2cc1C
output: band 2

input: State the band of COc1cc2cc(C(=O)CCC(=O)O)sc2cc1OC(F)F
output: band 3

input: State the band of COc1cc2cc(C(=O)C[C@H](C)C(=O)O)sc2cc1CCF
output: band 2

input: State the band of COc1cc2cc(C(=O)CCC(=O)O)sc2cc1CCF
output: band 3

input: State the band of CCCc1cc2sc(C(=O)C[C@H](C)C(=O)O)cc2cc1OC
output: band 3

----------
Biological target: full-length WT STING (Homo sapiens (Human), UniProt Q86WV6, H232R)
Sequence (Q86WV6 other isoform, or with tags, fused parts or gaps H232R (already in the parent)): as the sequence (Q86WV6 other isoform, or with tags, fused parts or gaps, stated change not applied) above, with H71R, A230G, Q293R counted along it
Assay: 3H-cGAMP filtration binding assay (WT STING)
Settings: competition with tritiated cGAMP, WT STING membrane
Readout Type: log10(EC50) (log10 of the value in µM)
Please note: log10 values; quantity EC50; unit µM.

input: Input COc1cc2cc(C(=O)C[C@H](C)C(=O)O)sc2cc1Br , output reported log10(EC50).
output: -0.05

input: Input COc1cc2cc(C(=O)CC(C)C(=O)O)sc2cc1OC (centres unmarked) , output reported log10(EC50).
output: 0.88

----------
Target: full-length WT STING (Homo sapiens (Human), UniProt Q86WV6, H232R)
Experiment: 3H-cGAMP filtration binding assay (WT STING)
Conditions: competition with tritiated cGAMP, WT STING membrane
Method: The ability of compounds to bind STING is quantified by their ability to compete with tritiated cGAMP ligand for human STING receptor membrane using a radioactive filter-binding assay. […] The filter plates were then dried at 55° C. for 30 min using a pressurized VWR oven before 30 uL of ULTIMA GOLD F scintillate was added to each well. Tritium levels for each reaction well were then measured using a PerkinElmer TopCount plate reader. […]
Readout Type: pEC50
Keep in mind that pEC50 stands for -log10 of concentration in molar terms.

A selection of reference data follows.
[
  {
    "Molecule": "COc1cc2cc(C(=O)C[C@H](C)C(=O)O)sc2cc1OC",
    "pEC50": 5.41
  },
  {
    "Molecule": "C=Cc1cc2cc(C(=O)C[C@H](C)C(=O)O)sc2cc1OC",
    "pEC50": 4.83
  },
  {
    "Molecule": "C[C@@H](CC(=O)c1cc2cc(Cl)c(Br)cc2s1)C(=O)O",
    "pEC50": 4.77
  }
]

# ---- query molecule ----
input: Input COc1cc2sc(C(=O)C[C@H](C)C(=O)O)cc2cc1Cl , output reported pEC50.
output: 5.03
